Test system: UACC-257 melanoma
Experiment: NCI tumour cell line growth inhibition, 48 h; in the data active = GI50 below about 0.43 µM; inactive = the rest
Classes used: active, inactive

>>> assigned_category("CCN(Cc1ccc(F)cc1F)c1ccc(CO)c(Cl)c1")
"active"
>>> assigned_category("C=C(CN1CCc2ccccc2C1)c1ccc(/C=C/C(=O)Nc2ccccc2N)cc1")
"inactive"
>>> assigned_category("CCOC(=O)c1sc2ncn(Cc3cccc(Cl)c3)c(=O)c2c1C")
"inactive"
>>> assigned_category("COc1cc2c3c(n(CCCO)c(=O)c2cc1OC)-c1cc2c(cc1C3=O)OCO2")
"inactive"
>>> assigned_category("COC(=O)C/C(C)=C/[C@@H](O)[C@H]1O[C@@H]2CC/C(Cl)=C/C/C=C(/C)[C@H](OC(C)=O)CC(=O)O[C@@H]1C2")
"inactive"
>>> assigned_category("O=C(Oc1cccc(Nc2ncnc3ccccc23)c1)c1ccccc1Cl")
"inactive"
>>> assigned_category("C=C1C(=O)O[C@H]2[C@H]1CC/C(COC(=O)/C=C/c1cccnc1)=C\\CC[C@@]1(C)O[C@@H]21")
"inactive"
>>> assigned_category("CCOC(=O)Oc1c(OC)cc(C(=O)c2ccc(OC)c(OC(=O)CCl)c2OC)cc1OC")
"inactive"
>>> assigned_category("c1ccc(Oc2c3ccccc3nc3ccccc23)cc1")
"inactive"
>>> assigned_category("CC1/C=C/C=C/CC/C=C/C=C/C=C/C=C/C(OC2OC(C)C(O)C(N)C2O)CC2OC(CC(O)C(O)CCC(O)CC(O)CC(O)CC(=O)OC(C)C(C)C1O)CC(O)C2C(=O)O (stereo unspecified)")
"inactive"
>>> assigned_category("COc1ccc(C(=O)c2cc(OC)c(OC)c(OC)c2)cc1/C=C/C(=O)c1ccc(O)cc1")
"inactive"
>>> assigned_category("COc1ccc(/C=C/C(=O)/C=C(/C=C/c2ccc(OC)c(OC)c2)OB(F)F)cc1OC")
"inactive"
>>> assigned_category("Clc1ccc(Nc2ccnc(NCCNc3ccnc4cc(Cl)ccc34)n2)cc1")
"inactive"
>>> assigned_category("Cn1cc(-c2nc(-c3c[nH]c4ncccc34)cs2)c2cc(Cl)ccc21")
"inactive"
>>> assigned_category("COc1ccc(/C=C(\\C#N)n2nnc3cc(Cl)ccc32)cc1")
"inactive"
>>> assigned_category("Cc1c2ncccc2c(C)c2c1[nH]c1ccc(O)cc12")
"inactive"
>>> assigned_category("Cc1ccc(C)c(-n2c(-c3ccc(Br)cc3)csc2=NC(=O)c2ccccc2F)c1")
"inactive"
>>> assigned_category("Cc1cc(S(=O)(=O)Nc2nnc(-c3ccco3)c(-c3ccco3)n2)c(SCc2ccccc2)cc1Cl")
"inactive"
>>> assigned_category("COc1cc(/C=C2\\CC(C)CC3C2=NN(c2ccccc2)C3c2cc(OC)c(OC)c(OC)c2)cc(OC)c1OC (stereo unspecified)")
"inactive"
>>> assigned_category("COC(=O)c1ccc(-c2nc3cc(F)c(F)cc3nc2C#N)cc1")
"inactive"
>>> assigned_category("COc1ccc2c(CN3CCC(CO)CC3)cc3cc4c(cc3c2c1)OCO4")
"active"

====

Recorded measurements of TGI, one per entry
Test system: KM20L2 colon
Test: NCI tumour cell line growth inhibition, 48 h
RECORDED_METRIC: TGI

>>> observed("Nc1ccc(CCN2CCN(c3cccc(C(F)(F)F)c3)CC2)cc1")
"> 100 µM"
>>> observed("COc1cccc2c1C(=O)c1c(O)c3c(c(O)c1C2=O)CC(O)(C(C)=O)CC3OC1CC([N+](C)(C)C)C(O)C(C)O1 (stereo unspecified)")
"> 100 µM"
>>> observed("CC1=CC(=C(c2ccc(N)c(C)c2)c2ccc(N)c(C)c2)C=CC1=N")
"14.5 µM"
>>> observed("CN(C)CCN1N=Nc2cccc3cccc1c23")
"> 100 µM"
>>> observed("CCC12CCC(O)C1N(C)CCC2Sc1ccccc1 (stereo unspecified)")
"> 100 µM"
>>> observed("CC(C)OP(=O)(OC(C)C)c1nn(-c2ccc([N+](=O)[O-])cc2)c(=N)s1")
"> 100 µM"
>>> observed("N#C[C@]12CC3(CC[C@H]1CC1(C2)OCCO1)OCCO3")
"> 100 µM"
>>> observed("N#CC12CCC(O)C(CC1)C2=O (stereo unspecified)")
"> 100 µM"
>>> observed("COc1cccc(/C=C\\c2cc(OC)c(OC)c(OC)c2)c1")
"1.56 µM"
>>> observed("O=C1C2c3[nH]c4ccccc4c3C3CCSCC3C2C(=O)N1c1ccccc1 (stereo unspecified)")
"> 100 µM"
>>> observed("O=NN(CCCl)C(=O)NCc1ccc[n+]([O-])c1")
"> 100 µM"

Reference source: PubChem BioAssay (NCI)
